Experiment: Tissue distribution of THP, DHC and protopine in rat tissues after gastric gavage administration (HPLC-UV, non-compartmental analysis)
Type: in vivo, Wistar male rats
Conditions: male, Wistar, po, 6.45 mg/kg, rat diencephalons, read-out: Cmax of THP
Experimental: The experimental protocol was approved by the University's Animal Ethics Committee. […] Rats had unlimited access to water. Standard food was given until 12 h before the experiments. Rhizoma Corydalis was processed according to Pharmacopoeia of Chinese Medicine and National Guideline of Traditional Chinese Medicinal Plants Processing. Briefly, fresh Rhizoma Corydalis was boiled in water till the pith turn light brown color. Cooked rhizome was sliced into pieces (4 mm, diameter) and dried at 25 °C. […]
MEASURED QUANTITY: Cmax (ng/mL)
Number in ng/mL, nothing else.

// recorded Cmax for COc1cc2c(cc1OC)[C@@H]1Cc3ccc(OC)c(OC)c3CN1CC2 [THP, tetrahydropalmatine] : 460

----------
Test: Tissue distribution of THP, DHC and protopine in rat tissues after gastric gavage administration (HPLC-UV, non-compartmental analysis)
Assay type: in vivo, Wistar male rats
Details: male, Wistar, po, 4.52 mg/kg, rat kidney, read-out: Cmax of protopine
Method: The experimental protocol was approved by the University's Animal Ethics Committee. […] Rats had unlimited access to water. Standard food was given until 12 h before the experiments. Rhizoma Corydalis was processed according to Pharmacopoeia of Chinese Medicine and National Guideline of Traditional Chinese Medicinal Plants Processing. Briefly, fresh Rhizoma Corydalis was boiled in water till the pith turn light brown color. Cooked rhizome was sliced into pieces (4 mm, diameter) and dried at 25 °C. […]
MEASURED QUANTITY: Cmax
Quick note: number first, unit second.

Looking up CN1CCc2cc3c(cc2C(=O)Cc2ccc4c(c2C1)OCO4)OCO3 [protopine] , I see its Cmax listed as 4420 ng/mL

----------
Assay: Tissue distribution of THP, DHC and protopine in rat tissues after gastric gavage administration (HPLC-UV, non-compartmental analysis)
Assay type: in vivo, Wistar male rats
Conditions: male, Wistar, diencephalon, po, 4.52 mg/kg, rat diencephalons, read-out: Tmax of protopine
MEASURED QUANTITY: Tmax (h)
Answer format: numeric, h implied, no suffix.

Input CN1CCc2cc3c(cc2C(=O)Cc2ccc4c(c2C1)OCO4)OCO3 [protopine] . Output Tmax: 2.07

----------
Assay: Tissue distribution of THP, DHC and protopine in rat tissues after gastric gavage administration (HPLC-UV, non-compartmental analysis)
Type: in vivo, Wistar male rats
Conditions: male, Wistar, po, 26.1 mg/kg, rat cerebellum, read-out: Cmax of DHC
MEASURED QUANTITY: Cmax (ng/mL)
Expressed in ng/mL, but write only the number.

The reported Cmax of the molecule COc1cc2c(cc1OC)-c1c(C)c3ccc(OC)c(OC)c3c[n+]1CC2 [DHC, dehydrocorydaline] was 50

----------
Test: Tissue distribution of THP, DHC and protopine in rat tissues after gastric gavage administration (HPLC-UV, non-compartmental analysis)
Type: in vivo, Wistar male rats
Conditions: male, Wistar, diencephalon, po, 26.1 mg/kg, rat diencephalons, read-out: Cmax of DHC
MEASURED QUANTITY: Cmax (ng/mL)
Field format: number, assumed ng/mL, no unit text.

Reported Cmax for COc1cc2c(cc1OC)-c1c(C)c3ccc(OC)c(OC)c3c[n+]1CC2 [DHC, dehydrocorydaline] was 80

----------
Assay: Tissue distribution of THP, DHC and protopine in rat tissues after gastric gavage administration (HPLC-UV, non-compartmental analysis)
Format: in vivo, Wistar male rats
Details: male, Wistar, po, 6.45 mg/kg, rat hippocampus, read-out: MRT of THP
MEASURED QUANTITY: MRT

Short answer for COc1cc2c(cc1OC)[C@@H]1Cc3ccc(OC)c(OC)c3CN1CC2 [THP, tetrahydropalmatine] : MRT was 7.04 h
